target: RORγt (Homo sapiens); assay: Cofactor recruitment test (Alpha Screen, biotinylated SRC-1 peptide); format: biochemical; conditions: read-out: Signal value inhibitory rate at test compound 1 μM (%)
Sequence (P51449 1-497 isoform P51449-2, species assumed): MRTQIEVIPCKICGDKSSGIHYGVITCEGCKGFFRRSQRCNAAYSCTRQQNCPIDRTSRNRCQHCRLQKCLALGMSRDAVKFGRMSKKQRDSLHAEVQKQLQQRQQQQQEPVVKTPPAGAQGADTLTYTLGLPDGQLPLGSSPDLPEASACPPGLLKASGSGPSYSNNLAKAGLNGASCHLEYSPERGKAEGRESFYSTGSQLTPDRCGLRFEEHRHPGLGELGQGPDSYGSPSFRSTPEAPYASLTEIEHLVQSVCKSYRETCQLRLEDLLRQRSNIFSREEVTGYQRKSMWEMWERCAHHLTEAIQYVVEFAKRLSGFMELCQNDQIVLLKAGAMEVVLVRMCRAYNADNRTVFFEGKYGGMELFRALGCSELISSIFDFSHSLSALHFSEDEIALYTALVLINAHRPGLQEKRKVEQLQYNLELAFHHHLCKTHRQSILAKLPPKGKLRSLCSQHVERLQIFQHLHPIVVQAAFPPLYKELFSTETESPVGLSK
Outcome label depends on inhibition at 1 µM relative to 90%: at/above gives Condition met, below gives Condition not met.

COc1ccc2c(n1)CCN(C(=O)c1cc(O)no1)[C@H]2C(=O)Nc1ccc([Si](C)(C)C)c(F)c1: Condition met

Hi team, for `COc1ccc2c(c1)CCN(C(=O)Cc1nnc(C)o1)[C@H]2C(=O)Nc1ccc(C(C)(C)C)c(F)c1` , is the recorded inhibition at 1 µM at or above 90%?
Condition not met

Hi team, for `CCOc1ccc2c(c1)CCN(C(=O)Cc1cc(O)no1)[C@H]2C(=O)Nc1ccc(C(C)(C)C)c(F)c1` , is the recorded inhibition at 1 µM at or above 90%?
Condition not met
